- assay.remarks: MTT cytotoxicity assay, normal liver cell LO2
- Format: cell-based
- condition.label: human; MTT method; LO2 normal liver cells
assay.readout: IC50 (nM)
Note: unit nM is implicit; provide only the numeric part.

| compound | assay.readout | measurement |
| --- | --- | --- |
| COc1cccc2c1C(=O)c1c(O)c3c(c(O)c1C2=O)C[C@@](O)(C(=O)CO)C[C@@H]3O[C@H]1C[C@H](N)[C@H](O)[C@H](C)O1 [Doxorubicin, reference compound] | IC50 | 2260 |

Shift focus to the following entry.
For reference, reported IC50 for CC1OC(OC2CCC(OC3(C)CC(=O)C4(O)C5=C(C=CC4(O)C3)C(=O)c3c(ccc(C4CC6OC7CC(=O)C(C)OC7OC6C(C)O4)c3O)C5=O)OC2C)C=CC1=O (centres unmarked) stands at 343
